Entries and their measured pIC50 follow.
- System: K562
- experimentalProtocol: Cytotoxicity in drug sensitive human K562 cells assessed as reduction cell viability incubated for 48 hrs by XTT assay
- Assay type: functional, cell-based
- settings: K562, 48 h
pIC50: −log10 of the molar value.
parameterMeasured: pIC50

- inputSmiles: "Cc1ccc(NC(=O)c2ccc(CN3CCN(C)CC3)cc2)cc1Nc1nccc(-c2cccnc2)n1"
  measuredNumber: 5.96
- inputSmiles: "COc1ccc(-c2cc3ccccc3s2)cc1[C@@H]1O[C@H](COC(C)=O)[C@@H](OC(C)=O)[C@H]1OC(C)=O"
  measuredNumber: 5.40
